Origin of measurements: BigSolDB 2.1

- Experimental Setup: in water, 293.15 K
Observable: solubility (mole fraction)

> print(dat)
                                cpd.smiles                  observable       val
1  [NH3+]O.[NH3+]O.[O-]n1nnnc1-c1nnnn1[O-]  solubility (mole fraction)  2.42e-05

###

- Experimental Setup: in water, 298.15 K
Observable: solubility (mole fraction)

> print(dat)
                                cpd.smiles                  observable       val
1  [NH3+]O.[NH3+]O.[O-]n1nnnc1-c1nnnn1[O-]  solubility (mole fraction)  2.83e-05
